These entries and their values trace back to ChEMBL document CHEMBL3603764.

Test: Selectivity index, ratio of TC50 for African green monkey vero cells to IC50 for Coxsackievirus B3
Format: toxicity, cell-based
Conditions: read-out: Selectivity Index
Values of selectivity ratio greater than or equal to 20 map to condition met; values below map to condition not met.

## Task Exam item: decide whether the reported selectivity ratio for O=C(CCC[C@@H]1[C@H]2CCCN3CCC[C@@H](CN1S(=O)(=O)c1ccc(OC(F)(F)F)cc1)[C@@H]23)N1CCC1 is at least 20.
## Result condition met

## Task Identify whether the reported selectivity ratio of the following molecule is 20 or greater: CNC(=O)CCC[C@@H]1[C@H]2CCCN3CCC[C@@H](CN1S(=O)(=O)c1cccc(C(F)(F)F)c1)[C@@H]23
## Result condition met

## Task # bool: selectivity ratio of COC(=O)CCC[C@@H]1[C@H]2CCCN3CCC[C@@H](CN1S(=O)(=O)c1ccc(OC(F)(F)F)cc1)[C@@H]23 >= 20
## Result condition not met

## Task Confirm if selectivity ratio reported for the molecule O=C(CCC[C@@H]1[C@H]2CCCN3CCC[C@@H](CN1S(=O)(=O)c1cccc(C(F)(F)F)c1)[C@@H]23)N1CCOCC1 is 20 or above.
## Result condition met

## Task Quick check, selectivity ratio >= 20? COC(=O)CCC[C@@H]1[C@H]2CCCN3CCC[C@@H](CN1S(=O)(=O)c1ccc(C(C)=O)cc1)[C@@H]23
## Result condition met

###

Test system: Coxsackievirus B3
Experiment: Antivirus activity against Coxsackievirus B3 infected in African green monkey vero cells assessed as inhibition of virus-induced cytopathic effect
Assay type: functional, organism-based
Conditions: Enterovirus B
Measurement Type: IC50 (µM)
Record the value in µM, omitting the unit from your answer.

For CN(C)C(=O)CCC[C@@H]1[C@H]2CCCN3CCC[C@@H](CN1S(=O)(=O)c1ccc(OC(F)(F)F)cc1)[C@@H]23 the molecule record lists IC50 as 2.74

O=C(CCC[C@@H]1[C@H]2CCCN3CCC[C@@H](CN1S(=O)(=O)c1cccc(C(F)(F)F)c1)[C@@H]23)N1CCOCC1 has a reported IC50 of 3.95

Record O=C(CCC[C@@H]1[C@H]2CCCN3CCC[C@@H](CN1S(=O)(=O)c1ccc(OC(F)(F)F)cc1)[C@@H]23)N1CCC1 , field IC50: 5.58

Record summary for COCCCC[C@@H]1[C@H]2CCCN3CCC[C@@H](CN1S(=O)(=O)c1cccc(C#N)c1)[C@@H]23 : reported IC50 = 8.41

Note to self: IC50 recorded for CN(C)C(=O)CCC[C@@H]1[C@H]2CCCN3CCC[C@@H](CN1S(=O)(=O)c1cccc(C(F)(F)F)c1)[C@@H]23 was 2.49

The molecule listed as O=C(CCC[C@@H]1[C@H]2CCCN3CCC[C@@H](CN1S(=O)(=O)c1ccc(OC(F)(F)F)cc1)[C@@H]23)N1CCOCC1 has a reported IC50 of 7.19

Noted for NC(=O)CCC[C@@H]1[C@H]2CCCN3CCC[C@@H](CN1S(=O)(=O)c1cccc(C(F)(F)F)c1)[C@@H]23 : its IC50 reads 4.33

The recorded IC50 for COC(=O)CCC[C@@H]1[C@H]2CCCN3CCC[C@@H](CN1S(=O)(=O)c1ccc(C(C)=O)cc1)[C@@H]23 is 8.58
